molecular target: CDK6/Cyclin D1 (Homo sapiens (Human), UniProt Q00534); assay: biochemical; conditions: CDK6_Ki (nM), non-phosphorylated CDK6/Cyclin D1, 2 mM ATP, Morrison fit
Sequence (Q00534 whole entry): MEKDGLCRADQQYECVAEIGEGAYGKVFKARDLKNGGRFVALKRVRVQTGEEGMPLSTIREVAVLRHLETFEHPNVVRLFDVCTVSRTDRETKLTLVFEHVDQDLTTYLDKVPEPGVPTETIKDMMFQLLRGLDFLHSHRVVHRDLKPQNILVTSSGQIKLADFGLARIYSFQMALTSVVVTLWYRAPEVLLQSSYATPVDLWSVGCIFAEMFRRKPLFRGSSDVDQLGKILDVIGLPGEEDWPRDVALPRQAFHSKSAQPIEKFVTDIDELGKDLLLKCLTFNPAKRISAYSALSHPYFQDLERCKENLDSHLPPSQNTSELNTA
Sequence (P24385 whole entry partner): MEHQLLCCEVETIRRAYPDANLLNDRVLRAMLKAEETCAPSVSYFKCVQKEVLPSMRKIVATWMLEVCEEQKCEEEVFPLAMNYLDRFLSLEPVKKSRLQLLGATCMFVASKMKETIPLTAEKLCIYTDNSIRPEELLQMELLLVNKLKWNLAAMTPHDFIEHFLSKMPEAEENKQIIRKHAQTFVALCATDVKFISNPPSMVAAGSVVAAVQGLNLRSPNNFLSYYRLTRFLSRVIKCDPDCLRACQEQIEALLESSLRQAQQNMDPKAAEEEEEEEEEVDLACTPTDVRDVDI
# true (1) = Ki below 2 nM (exclusive); false (0) = Ki at/above 2 nM

Field: example entries. Status: answers known.
[[record]]
compound = "C[C@H]1[C@@H](O)CC[C@@H]1n1c(=O)ccc2cnc(NC3CCN(S(C)(=O)=O)CC3)nc21 (single isomer, unassigned)"
class = "false (0)"

[[record]]
compound = "CS(=O)(=O)N1CCC(Nc2ncc3cc(C(F)F)c(=O)n([C@@H]4CCC[C@@H](O)C4)c3n2)CC1"
class = "true (1)"

[[record]]
compound = "Cc1cc2cnc(NC3CCN(S(C)(=O)=O)CC3)nc2n([C@@H]2C[C@H](O)C[C@@H]2C)c1=O (single isomer, unassigned)"
class = "true (1)"


State whether 2 nM exceeds Ki recorded for C[C@@]1(O)CCC[C@H]1n1c(=O)ccc2cnc(NC3CCN(S(=O)(=O)c4nccs4)CC3)nc21 (single isomer, unassigned) .
true (1)

Please let me know if C[C@]1(O)CCC[C@@H]1n1c(=O)c(C(F)F)cc2cnc(NC3CCN(S(N)(=O)=O)CC3)nc21 (single isomer, unassigned) shows Ki below 2 nM.
false (0)

Find out if reported Ki for `COCc1cc2cnc(NC3CCN(S(C)(=O)=O)CC3)nc2n([C@H]2CCC[C@H]2C)c1=O` is less than 2 nM
true (1)

----------
target: CDK2/Cyclin E1 (Homo sapiens (Human)); test: biochemical; conditions: CDK2_Ki (nM), phosphorylated CDK2/Cyclin E1, 150 μM ATP, Morrison tight-binding fit
The label is rule met for Ki below 2 nM and rule not met for Ki equal to or exceeding 2 nM.

Does Cc1cc2cnc(NC3CCN(S(=O)(=O)C4CCS(=O)(=O)C4)CC3)nc2n([C@H]2CCC[C@]2(C)O)c1=O (single isomer, unassigned; isomer c) [Example 108] have Ki strictly under 2 nM?
rule not met

Just wondering, is Ki of Cc1cc2cnc(NC3CCN(S(=O)(=O)NC[C@H]4CCCO4)CC3)nc2n([C@H]2CCC[C@]2(C)O)c1=O (single isomer, unassigned) [Example 103] below 2 nM?
rule not met

For C[C@@]1(O)CCC[C@H]1n1c(=O)c(Cl)cc2cnc(N[C@@H]3CCN(S(C)(=O)=O)C[C@@H]3F)nc21 (single isomer, unassigned) [Example 192] , is the recorded Ki below the cut-off of 2 nM?
rule not met

Strictly below 2 nM in Ki? C[C@@]1(O)CCC[C@H]1n1c(=O)ccc2cnc(NC3CCN(S(=O)(=O)c4nccs4)CC3)nc21 (single isomer, unassigned) [Example 78]
rule met

API: query returns whether the compound falls strictly under 2 nM in Ki. Query: CS(=O)(=O)N1CC[C@@H](Nc2ncc3cc(CCO)c(=O)n(C4CCCC4)c3n2)[C@H](F)C1 (single isomer, unassigned) [Example 157]
rule not met

----------
biological target: CDK6/Cyclin D1 (Homo sapiens (Human), UniProt Q00534); assay: biochemical; conditions: CDK6_Ki (nM), non-phosphorylated CDK6/Cyclin D1, 2 mM ATP, Morrison fit
Observation Type: Ki (nM)
Give the number; nM is assumed, so skip it.

Use the examples below as a reference point.
[[record]]
compound = "C[C@H]1CCC[C@H]1n1c(=O)c(CC(N)=O)cc2cnc(NC3CCN(S(C)(=O)=O)CC3)nc21 [Example 47]"
subject_of_test = "CDK6/Cyclin D1 (Homo sapiens (Human), UniProt Q00534)"
assay_value = 1.09

[[record]]
compound = "C[C@@]1(O)CCC[C@H]1n1c(=O)ccc2cnc(NC3CCN(S(=O)(=O)CC(F)(F)F)CC3)nc21 (single isomer, unassigned) [Example 86]"
subject_of_test = "CDK6/Cyclin D1 (Homo sapiens (Human), UniProt Q00534)"
assay_value = 1.6


What measured Ki goes with CNS(=O)(=O)N1CCC(Nc2ncc3cc(Cl)c(=O)n([C@H]4CCC[C@]4(C)O)c3n2)CC1 (single isomer, unassigned) [Example 127] ?
12.6
